meta.source: the supplement of paper PMC7125110

B1: glmS ribozyme (parent)
chain: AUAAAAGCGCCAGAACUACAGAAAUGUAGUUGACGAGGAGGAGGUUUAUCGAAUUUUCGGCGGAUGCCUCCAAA

Variants of: B1
Assay: kcat; higher = faster cleavage; RNA array
Conditions: with glucosamine-6-phosphate
This sample holds only a part of the variants without activity.
Property measured: kcat (s⁻¹)
State just the number; it will be interpreted in s⁻¹.

// solved cases for kcat follow
> print(dat)
   mutant.designation  measured
1           A15C U57A  7.96e-05
2           G40C A52U  8.17e-05
3           U46A C71A   0.00108

Please examine the following record next.
In: Requested read-out: kcat. Entry: A12C A53C
Out: 0.00399
